measured.target: T-type calcium channel (Homo sapiens, UniProt O95180)
Sequence (O95180 whole entry): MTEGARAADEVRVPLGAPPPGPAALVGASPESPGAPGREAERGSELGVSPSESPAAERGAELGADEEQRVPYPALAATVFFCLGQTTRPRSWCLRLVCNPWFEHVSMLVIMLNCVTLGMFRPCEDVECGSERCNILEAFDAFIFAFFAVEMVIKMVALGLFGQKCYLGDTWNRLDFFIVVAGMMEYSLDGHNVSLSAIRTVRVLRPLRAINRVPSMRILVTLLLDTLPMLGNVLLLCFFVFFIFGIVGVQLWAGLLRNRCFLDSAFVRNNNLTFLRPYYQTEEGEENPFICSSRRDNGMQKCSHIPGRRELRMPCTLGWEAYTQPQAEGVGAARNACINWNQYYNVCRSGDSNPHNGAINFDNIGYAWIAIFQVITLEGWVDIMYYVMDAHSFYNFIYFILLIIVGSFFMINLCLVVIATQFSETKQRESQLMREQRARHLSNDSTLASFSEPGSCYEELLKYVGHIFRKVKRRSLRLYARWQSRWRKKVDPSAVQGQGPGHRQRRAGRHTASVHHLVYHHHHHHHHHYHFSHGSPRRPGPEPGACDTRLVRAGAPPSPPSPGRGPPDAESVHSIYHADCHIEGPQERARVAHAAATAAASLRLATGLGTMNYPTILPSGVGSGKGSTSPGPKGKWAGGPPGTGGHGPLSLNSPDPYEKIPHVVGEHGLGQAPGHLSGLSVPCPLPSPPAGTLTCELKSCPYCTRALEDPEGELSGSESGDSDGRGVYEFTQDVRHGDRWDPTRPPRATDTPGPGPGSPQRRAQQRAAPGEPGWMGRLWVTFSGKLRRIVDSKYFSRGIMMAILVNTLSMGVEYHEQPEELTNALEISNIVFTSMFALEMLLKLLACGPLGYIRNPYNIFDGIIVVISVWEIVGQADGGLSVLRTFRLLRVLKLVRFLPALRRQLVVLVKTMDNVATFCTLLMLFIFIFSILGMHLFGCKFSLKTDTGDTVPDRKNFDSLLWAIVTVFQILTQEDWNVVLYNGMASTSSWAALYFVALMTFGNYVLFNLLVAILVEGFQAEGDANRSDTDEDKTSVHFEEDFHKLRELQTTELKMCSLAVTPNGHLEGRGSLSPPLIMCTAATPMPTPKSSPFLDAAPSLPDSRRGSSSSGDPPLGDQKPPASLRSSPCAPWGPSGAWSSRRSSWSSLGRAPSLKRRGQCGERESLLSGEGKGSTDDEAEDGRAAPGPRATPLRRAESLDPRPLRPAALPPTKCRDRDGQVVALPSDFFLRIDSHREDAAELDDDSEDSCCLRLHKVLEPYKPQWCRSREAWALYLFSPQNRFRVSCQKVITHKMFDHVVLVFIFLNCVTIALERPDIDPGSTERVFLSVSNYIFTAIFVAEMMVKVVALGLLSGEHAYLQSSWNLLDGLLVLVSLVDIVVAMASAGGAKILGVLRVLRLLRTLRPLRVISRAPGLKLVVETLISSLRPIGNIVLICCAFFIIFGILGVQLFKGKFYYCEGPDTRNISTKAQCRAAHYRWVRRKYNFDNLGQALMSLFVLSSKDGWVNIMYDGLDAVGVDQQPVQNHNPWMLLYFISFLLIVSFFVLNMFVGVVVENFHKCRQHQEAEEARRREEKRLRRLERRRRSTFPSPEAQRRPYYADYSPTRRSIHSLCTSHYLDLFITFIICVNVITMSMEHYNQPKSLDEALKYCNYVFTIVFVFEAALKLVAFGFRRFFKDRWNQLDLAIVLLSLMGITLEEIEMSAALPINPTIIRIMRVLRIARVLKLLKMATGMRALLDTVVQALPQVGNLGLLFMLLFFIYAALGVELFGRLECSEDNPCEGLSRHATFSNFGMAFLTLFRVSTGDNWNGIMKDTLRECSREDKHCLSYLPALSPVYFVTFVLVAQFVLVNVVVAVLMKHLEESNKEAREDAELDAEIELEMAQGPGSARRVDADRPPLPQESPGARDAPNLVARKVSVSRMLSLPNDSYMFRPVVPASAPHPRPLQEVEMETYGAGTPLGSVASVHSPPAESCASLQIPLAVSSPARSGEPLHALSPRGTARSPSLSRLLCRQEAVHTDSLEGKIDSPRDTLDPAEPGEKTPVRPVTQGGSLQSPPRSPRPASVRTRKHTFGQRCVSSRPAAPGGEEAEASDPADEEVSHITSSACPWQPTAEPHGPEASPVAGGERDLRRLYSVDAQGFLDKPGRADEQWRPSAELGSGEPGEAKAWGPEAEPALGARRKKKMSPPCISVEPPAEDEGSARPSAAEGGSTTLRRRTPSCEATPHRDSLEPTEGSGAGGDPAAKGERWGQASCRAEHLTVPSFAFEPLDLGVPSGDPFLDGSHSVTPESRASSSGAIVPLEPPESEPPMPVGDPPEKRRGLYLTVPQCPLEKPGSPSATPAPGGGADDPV
method.notes: T-type channel blocking, FLIPR data (Table 6)
Type: cell-based
run.conditions: CAv3.2, inactivated state, read-out: CAv3.2 IC50 Inact.
measured.quantity: IC50 (µM)

[[record]]
molecule = "CC(C)(C[C@H]1C[C@@H](NC(=O)[C@@H]2CCCC[C@H]2N)C1)S(=O)(=O)c1cccc(C(F)(F)F)c1 [Compound 741]"
measured_target = "T-type calcium channel (Homo sapiens, UniProt O95180)"
measured_quantity = "IC50"
unit_of_measure = "µM"
measured_result = 10

[[record]]
molecule = "CC(C)([C@H]1C[C@@H](C(=O)Nc2ccc(C(F)(F)F)cn2)C1)S(=O)(=O)c1cccc(C(F)(F)F)c1 [Compound 758]"
measured_target = "T-type calcium channel (Homo sapiens, UniProt O95180)"
measured_quantity = "IC50"
unit_of_measure = "µM"
measured_result = 1.97

[[record]]
molecule = "CC(C)([C@H]1C[C@@H](NC(=O)c2cc(C(F)(F)F)n[nH]2)C1)S(=O)(=O)c1cccc(OC(F)(F)F)c1 [Compound 639]"
measured_target = "T-type calcium channel (Homo sapiens, UniProt O95180)"
measured_quantity = "IC50"
unit_of_measure = "µM"
measured_result = 2.55

[[record]]
molecule = "CC(C)([C@H]1C[C@H](NC(=O)c2ccc(C(F)(F)F)cn2)C1)S(=O)(=O)c1cccc(C(F)(F)F)c1 [Compound 676]"
measured_target = "T-type calcium channel (Homo sapiens, UniProt O95180)"
measured_quantity = "IC50"
unit_of_measure = "µM"
measured_result = 3.79


====

A collection of compounds and their measured IC50
measured.target: T-type calcium channel (Homo sapiens)
method.notes: T-type channel blocking, FLIPR data (Table 6)
Assay type: cell-based
run.conditions: CAv3.2, closed state, read-out: CAv3.2 IC50 Closed
measured.quantity: IC50 (µM)

[[record]]
compound_string = "CC(C)S(=O)(=O)c1cc(C(F)(F)F)cnc1C(=O)NC[C@H]1C[C@@H](C(C)(C)S(=O)(=O)c2cccc(C(F)(F)F)c2)C1"
unit_of_measure = "µM"
limit_operator = "="
measured_result = 5.93

[[record]]
compound_string = "CC(C)([C@H]1C[C@@H](NS(=O)(=O)c2ccc(F)c(C(F)(F)F)c2)C1)S(=O)(=O)c1cc(F)cc(C(F)(F)F)c1"
unit_of_measure = "µM"
limit_operator = "≥"
measured_result = 10

[[record]]
compound_string = "CC(C)([C@H]1C[C@@H](CNC(=O)c2ccnc(C(F)(F)F)n2)C1)S(=O)(=O)c1cccc(C(F)(F)F)c1"
unit_of_measure = "µM"
limit_operator = "="
measured_result = 5.45

[[record]]
compound_string = "O=C(NC[C@H]1C[C@H](S(=O)(=O)c2cccc(OC(F)(F)F)c2)C1)c1ccnc(C(F)(F)F)n1"
unit_of_measure = "µM"
limit_operator = "≥"
measured_result = 10

[[record]]
compound_string = "CC(C)([C@H]1C[C@@H](NS(=O)(=O)c2ccc(C(F)(F)F)nc2)C1)S(=O)(=O)c1cccc(C(F)(F)F)c1"
unit_of_measure = "µM"
limit_operator = "="
measured_result = 3.41

[[record]]
compound_string = "CC(C)(C[C@H]1C[C@H](NC(=O)c2ccc(OCC(F)(F)F)nc2)C1)S(=O)(=O)c1cccc(C(F)(F)F)c1"
unit_of_measure = "µM"
limit_operator = "="
measured_result = 2.24


====

Listing of entries alongside the reported IC50.
measured.target: CAv1.2 (Homo sapiens, UniProt Q13936)
method.notes: FLIPR data, CAv1.2 channel blocking (Table 6)
Type: cell-based
run.conditions: closed state, read-out: CAv1.2 IC50 Closed
measured.quantity: IC50

[[record]]
compound = "CC(C)([C@H]1C[C@H](NC(=O)c2ccc(C(F)(F)F)nc2)C1)S(=O)(=O)c1cccc(C(F)(F)F)c1"
measured_quantity = "IC50"
measured_result = "≥ 10 µM"

[[record]]
compound = "CC(C)([C@H]1C[C@@H](NC(=O)c2ccc(F)c(Cl)c2)C1)S(=O)(=O)c1cc(F)cc(C(F)(F)F)c1"
measured_quantity = "IC50"
measured_result = "5.33 µM"

[[record]]
compound = "CNC1(CC(=O)N[C@H]2C[C@H](C(C)(C)S(=O)(=O)c3cc(F)cc(C(F)(F)F)c3)C2)CCCCC1"
measured_quantity = "IC50"
measured_result = "≥ 10 µM"

[[record]]
compound = "CC(C)([C@H]1C[C@H](NC(=O)c2ccnc(C(F)(F)F)c2)C1)S(=O)(=O)c1cccc(C(F)(F)F)c1"
measured_quantity = "IC50"
measured_result = "≥ 10 µM"

[[record]]
compound = "CC(C)S(=O)(=O)c1cc(C(F)(F)F)cnc1C(=O)N[C@H]1C[C@@H](C(C)(C)S(=O)(=O)c2cccc(OC(F)(F)F)c2)C1"
measured_quantity = "IC50"
measured_result = "≥ 10 µM"

[[record]]
compound = "CC(C)(C1CC(CNC(=O)c2ccc(Cl)c(OC(F)(F)F)c2)C1)S(=O)(=O)c1cccc(C(F)(F)F)c1 (centres unmarked)"
measured_quantity = "IC50"
measured_result = "3.39 µM"

[[record]]
compound = "O=S(=O)(c1cc(F)cc(C(F)(F)F)c1)[C@H]1C[C@@H](CNc2ccnc(C(F)(F)F)n2)C1"
measured_quantity = "IC50"
measured_result = "9.21 µM"

[[record]]
compound = "CC(C)([C@H]1C[C@H](NS(=O)(=O)c2ccc(C(F)(F)F)nc2)C1)S(=O)(=O)c1cccc(C(F)(F)F)c1"
measured_quantity = "IC50"
measured_result = "≥ 10 µM"

[[record]]
compound = "CC(C)(C[C@H]1C[C@H](NC(=O)c2ncc(C(F)(F)F)cc2S(C)(=O)=O)C1)S(=O)(=O)c1cccc(C(F)(F)F)c1"
measured_quantity = "IC50"
measured_result = "≥ 10 µM"

[[record]]
compound = "NC1(CC(=O)NC[C@H]2C[C@H](S(=O)(=O)c3cc(F)cc(C(F)(F)F)c3)C2)CCCCC1"
measured_quantity = "IC50"
measured_result = "≥ 10 µM"

[[record]]
compound = "CC(C)([C@H]1C[C@H](NS(=O)(=O)c2ccc(OC(F)(F)F)cc2)C1)S(=O)(=O)c1cccc(C(F)(F)F)c1"
measured_quantity = "IC50"
measured_result = "≥ 10 µM"

[[record]]
compound = "CC(C)([C@H]1C[C@H](NS(=O)(=O)c2ccc(C(F)(F)F)cc2Cl)C1)S(=O)(=O)c1cc(F)cc(C(F)(F)F)c1"
measured_quantity = "IC50"
measured_result = "8.07 µM"

[[record]]
compound = "CC(C)S(=O)(=O)c1cc(C(F)(F)F)cnc1C(=O)N[C@H]1C[C@@H](C(C)(C)S(=O)(=O)c2cc(F)cc(C(F)(F)F)c2)C1"
measured_quantity = "IC50"
measured_result = "≥ 10 µM"

[[record]]
compound = "O=C(NC[C@H]1C[C@H](S(=O)(=O)c2cccc(OC(F)(F)F)c2)C1)c1ccc(OCC(F)(F)F)nc1 [Compound 699]"
measured_quantity = "IC50"
measured_result = "≥ 10 µM"

[[record]]
compound = "CC(C)([C@H]1C[C@H](NC(=O)c2cncc(C(F)(F)F)c2)C1)S(=O)(=O)c1cccc(C(F)(F)F)c1"
measured_quantity = "IC50"
measured_result = "≥ 10 µM"

[[record]]
compound = "CC(C)([C@H]1C[C@H](NC(=O)c2ccc(Cl)c(F)c2)C1)S(=O)(=O)c1cc(F)cc(C(F)(F)F)c1"
measured_quantity = "IC50"
measured_result = "3.63 µM"

[[record]]
compound = "CC(C)(C1CC(CNC(=O)c2cc(C(F)(F)F)n[nH]2)C1)S(=O)(=O)c1cccc(C(F)(F)F)c1 (centres unmarked) [Compound 682]"
measured_quantity = "IC50"
measured_result = "≥ 10 µM"

[[record]]
compound = "O=C(NC[C@H]1C[C@H](S(=O)(=O)c2cccc(C(F)(F)F)c2)C1)c1ccc(C(F)(F)F)nc1"
measured_quantity = "IC50"
measured_result = "≥ 10 µM"

[[record]]
compound = "O=C(NC[C@H]1C[C@H](S(=O)(=O)c2cc(F)cc(C(F)(F)F)c2)C1)c1ccnc(C(F)(F)F)n1"
measured_quantity = "IC50"
measured_result = "≥ 10 µM"

[[record]]
compound = "CC(C)([C@H]1C[C@H](NS(=O)(=O)c2ccc(C(F)(F)F)cc2)C1)S(=O)(=O)c1cccc(C(F)(F)F)c1"
measured_quantity = "IC50"
measured_result = "≥ 10 µM"

[[record]]
compound = "CC(C)(C[C@H]1C[C@H](NC(=O)c2ccc(C(F)(F)F)cn2)C1)S(=O)(=O)c1cccc(C(F)(F)F)c1"
measured_quantity = "IC50"
measured_result = "8.04 µM"

[[record]]
compound = "CC(C)([C@H]1C[C@@H](NS(=O)(=O)c2ccc(OC(F)(F)F)cc2)C1)S(=O)(=O)c1cccc(C(F)(F)F)c1"
measured_quantity = "IC50"
measured_result = "≥ 10 µM"

[[record]]
compound = "CC(C)([C@H]1C[C@@H](NS(=O)(=O)c2ccc(Cl)c(F)c2)C1)S(=O)(=O)c1cccc(C(F)(F)F)c1"
measured_quantity = "IC50"
measured_result = "9.15 µM"

[[record]]
compound = "CC(C)([C@H]1C[C@@H](Nc2ccnc(C(F)(F)F)n2)C1)S(=O)(=O)c1cccc(OC(F)(F)F)c1"
measured_quantity = "IC50"
measured_result = "8 µM"

[[record]]
compound = "CC(C)([C@H]1C[C@H](NC(=O)c2ccc(C(F)(F)F)cn2)C1)S(=O)(=O)c1cccc(C(F)(F)F)c1"
measured_quantity = "IC50"
measured_result = "7.96 µM"

[[record]]
compound = "CC(C)([C@H]1C[C@@H](NS(=O)(=O)c2ccc(C(F)(F)F)nc2)C1)S(=O)(=O)c1cc(F)cc(C(F)(F)F)c1"
measured_quantity = "IC50"
measured_result = "9.77 µM"

